# test: Pilot pharmacokinetic (PK) study with NAM microcapsules: NA and NAM serum levels
# Format: in vivo, human
# conditionDetails: human, serum, oral, 900 mg, 900 mg free or enc. NAM; hour 1; subjects 1-3
# Description: The study was a self-experiment by medical investigators performed at the Department of Internal Medicine 1 of the University Hospital Schleswig-Holstein, Campus Kiel (Kiel, Germany). In this study, subjects ingested either 900 mg of unformulated NAM (first week) or 900 mg of microencapsulated NAM packaged in gelatin capsules (second week). […] Height and body weight were recorded before ingestion of the test item.
measurementKind: concentration at 1 h (ng/mL)
Give the value, in units of ng/mL, as a plain number.

Report concentration at 1 h for NC(=O)c1cccnc1 [free NAM, nicotinamide] please.
11600
